Test system: NCI-H446
assay-notes: Antiproliferative activity against etoposide/cisplatin combination-resistant human NCI-H446 cells assessed as inhibition of cell growth incubated for 72 hrs by SRB assay
Assay type: functional, cell-based
condition-summary: NCI-H446, 72 h
Overview of recorded IC50 for various molecules
# unit: nM | format: bare number

Some solved entries appear below for comparison.
>  <molecule>
CC[C@@]1(O)C(=O)OCc2c1cc1n(c2=O)Cc2c-1nc1cc3c(cc1c2-c1ccoc1)OCO3

>  <measurement-units>
nM

>  <IC50>
0.49

$$$$
>  <molecule>
CC[C@@]1(O)C(=O)OCc2c1cc1n(c2=O)Cc2cc3cc4c(cc3nc2-1)OCO4

>  <measurement-units>
nM

>  <IC50>
6.61

$$$$

Look up IC50 for this molecule: CCc1c2c(nc3ccc(OC(=O)N4CCC(N5CCCCC5)CC4)cc13)-c1cc3c(c(=O)n1C2)COC(=O)[C@]3(O)CC [IRINOTECAN]
0.13
